Data origin, for the record: patent US9370519B2

What melting point was measured for each of the following?

MOLECULE: O=C1NCCCNc2ccn3ncc(c3n2)-c2cccc(c2)N1 [Compound 3]
melting point: > 300 °C

MOLECULE: CN1CCNC(=O)c2cccc(c2)-c2cnn3ccc(nc23)NCC1 [Compound 9]
melting point: 287.6 °C

MOLECULE: CC(C)N1CCNc2ccn3ncc(c3n2)-c2cccc(c2)OCC1 [Compound 6]
melting point: > 300 °C

Return reported melting point values for all items listed beneath this line.
1. c1cc2cc(c1)-c1cnn3ccc(nc13)OCCN(CCCN1CCCC1)CCO2 [Compound 13]
2. O=C1NCCN(CCO)CCNc2ccn3ncc(c3n2)-c2cccc1c2 [Compound 8]
3. c1cc2cc(c1)-c1cnn3ccc(nc13)NCCN(CCN1CCOCC1)CCO2 [Compound 5]
4. O=C(O)c1ccc2cc1OCCOCCNc1ccn3ncc-2c3n1 [Compound 1]

-- reply
["> 300 °C", "283.9 °C", "> 300 °C", "> 300 °C"]

Return reported melting point values for all items listed beneath this line.
1. Fc1cc2cc(c1)-c1cnn3ccc(nc13)NCCOCCCO2 [Compound 35]
2. O=C(NCCF)c1ccc2cc1OCCOCCNc1ccn3ncc-2c3n1 [Compound 20]

-- reply
234.9 °C
> 300 °C
